Tested on: A549/ATCC NSCLC
Experiment: NCI-60 one-dose screen, 48 h
Settings: 10 µM unless noted
About 83,000 compounds went through this panel and 20% of them were active in at least one assay; those are over-represented in the sample as a whole. The source made the active and inactive calls. The calls were made as follows: active = growth percent below 10; inactive = the rest.
Mark one answer only. Choices: 1 (active), 0 (inactive)

Request: Hi, sorry to bother you, what did the test record for CC(O)CN1CC(O)=C(c2nc3ccccc3s2)C1=N (stereo not drawn) ?
Result: 0

Further cases:
Request: Hi, sorry to bother you, what did the test record for `C(=C\c1nccc2c1[nH]c1ccccc12)/c1ccccc1` ?
Result: 0

Request: Okay, and CCOc1cc2ncc(C#N)c(Nc3ccc(OCc4cccc(F)c4)c(Cl)c3)c2cc1NC(=O)CCCCC1CCSS1 (stereo not drawn) ?
Result: 0

###

Can you tell me growth for the items I'm about to list?
System: CCRF-CEM leukemia
Assay: NCI-60 one-dose screen, 48 h (100 = growth as untreated, 0 = no growth, -100 = all killed)
Details: 10 µM unless noted
Compounds without any hit were thinned out: in the full panel of roughly 83,000, 20% have a hit.
One number for each entry, in %.

Consider the reported growth for these compounds:
Request: Fill blank: measured growth of the compound `COC(=O)c1cccc(NC(=O)c2ccc(-c3cccc(N)c3)o2)c1` is ____.
Result: 71.7

Request: Then what about the compound `COc1cc(-c2nc(C(=O)NCC(=O)NO)nn2-c2ccc(Cl)cc2)cc(OC)c1OC` ?
Result: 107

List reported growth for each of these compounds:
1. Clc1ccc2c(NCCNc3nc(N4CCCCC4)nc4ccccc34)ccnc2c1
2. COc1ccc(SC2c3ccc(C)cc3Oc3nc(N)c(C#N)c(N)c32)cc1 (centres undefined)
3. CC[C@@H](C(=O)[C@@H](C)[C@@H](O)[C@H](C)[C@@H]1O[C@@H]([C@@H](CC)C(=O)O)CC[C@@H]1C)[C@H]1OC2(C=C[C@@H](O)[C@]3(CC[C@@](C)([C@H]4CC[C@](O)(CC)[C@H](C)O4)O3)O2)[C@H](C)C[C@@H]1C (some centres undefined)

Result:
0.574
-33.5
0.899

Required: growth, one value per compound below.
1. NC1=C(Cl)C(=O)c2ccc(S(N)(=O)=O)cc2C1=O
2. COc1ccc(CN2c3ccccc3Sc3ccccc32)cc1O
3. O=C1NC(=Nc2ccc(O)cc2)S/C1=C\c1cccc(Cl)c1

Result:
[20.1, 8.29, 27.1]

Request: Which growth value is on record for `CN(C)CCN1C(=O)c2cccc3c(N)ccc(c23)C1=O` ?
Result: 10.5

###

System: SN12C renal
Experiment: NCI-60 one-dose screen, 48 h
Settings: 10 µM unless noted
Compounds without any hit were thinned out: in the full panel of roughly 83,000, 20% have a hit. Calls of active or inactive are those of the source. The calls were made as follows: active = growth percent below 10; inactive = the rest.
Your reply should match one of these outcome classes. 1 for active, 0 for inactive

Request: State the result this test recorded for `CSc1nc(Nc2cccc(NC(=O)CCl)c2)c(C#N)c(-c2cccc([N+](=O)[O-])c2)n1` .
Result: 0

Next:
Request: Test call, this molecule: `CC[C@@H]1O[C@H](O[C@@H](c2cnc[nH]2)[C@H](NC(=O)c2nc([C@H](CC(N)=O)NC[C@@H](N)C(N)=O)nc(N)c2C)C(=O)N[C@H](C)[C@H](O)[C@H](C)C(=O)N[C@@H](C(=O)NCCc2nc(-c3nc(C(=O)NCCCCN=C(N)N)cs3)cs2)[C@@H](C)O)[C@H](O[C@@H]2O[C@H](CO)[C@H](O)[C@H](OC(N)=O)[C@@H]2O)[C@H](C)[C@@H]1C`
Result: 0

Request: Likewise for Cc1cc(N2CCCCC2)nc(NC2CCCC(Nc3ccnc4cc(Cl)ccc34)C2)n1 (stereo unspecified) ?
Result: 1

Request: Same thing, different molecule: `CC(=O)Nc1ccc(-n2c(O)c(/C=N/NC(=O)Cc3ccccc3Nc3c(Cl)cccc3Cl)sc2=S)cc1`
Result: 0

Request: Please answer likewise for `c1ccc(-c2c(-c3ccccc3)[n+](Cc3ccc4ccccc4c3)c(-c3ccc(-c4nc5ccccc5s4)cc3)n2Cc2ccc3ccccc3c2)cc1`
Result: 1

Request: How about `O=C1NC(=Nc2ccc(O)cc2)S/C1=C\c1cccc(Cl)c1` ?
Result: 0
